Compiled notes: published pIC50 values involving Vasopressin V1a receptor (Homo sapiens).
pIC50: −log10 of the molar value.
Decide using pIC50: a value greater than or equal to 7 is Met, a smaller one is Not met.

Example entries and their recorded answers appear below.
molecule	category
Cc1cc(C(=O)N2Cc3ccc(C(=O)NC(=N)N)n3Cc3ccccc32)ccc1-c1ccccc1C(F)(F)F	Not met
O=C(NCc1cccc(C(F)(F)F)c1)C(CCC(=O)N1CCC(N2CCCCC2)CC1)N1C(=O)C(N2C(=O)OCC2c2ccccc2)C1C=Cc1ccccc1 (single isomer, unassigned)	Met
COc1ccc(S(=O)(=O)N2C(=O)C(c3ccccc3OC)(N3CCCC[C@H]3C(=O)N(C)C)c3cc(Cl)ccc32)c(OC(F)(F)F)c1 (single isomer, unassigned)	Not met
O=C(NCc1cccc(C(F)(F)F)c1)C(CCC(=O)N1CCN(Cc2ccccc2)CC1)N1C(=O)C(N2C(=O)OCC2c2ccccc2)C1C=Cc1ccccc1 (centres unmarked)	Met
O=C(c1ccc(-c2cccc3ccccc23)cc1Cl)N1Cc2cccn2Cc2ccccc21	Met

In plain terms: is recorded pIC50 at least 7 for CCCCN1CCN(C(=O)CCC(C(=O)NCc2cccc(C(F)(F)F)c2)N2C(=O)C(N3C(=O)OCC3c3ccccc3)C2C=Cc2ccccc2)CC1 (centres unmarked) ? Met

In plain terms: is recorded pIC50 at least 7 for "COc1ccccc1-c1ccc(C(=O)N2Cc3ccc(C(=O)N4CC[C@@H](N(C)C)C4)n3Cc3ccccc32)cc1C" ? Not met

In plain terms: is recorded pIC50 at least 7 for "Cc1cc(C(=O)N2Cc3ccc(C(=O)N(CCO)CCO)n3Cc3ccccc32)ccc1-c1ccccc1C(F)(F)F" ? Not met

In plain terms: is recorded pIC50 at least 7 for "Cc1cc(C(=O)N2Cc3ccc(C(=O)N(C)C[C@H](O)[C@@H](O)[C@H](O)[C@H](O)CO)n3Cc3ccccc32)ccc1-c1ccccc1C(F)(F)F" ? Not met

In plain terms: is recorded pIC50 at least 7 for "COc1cc(C(=O)N2Cc3ccc(C(=O)N4CCC[C@H]4CN4CCCC4)n3Cc3ccccc32)ccc1-c1ccccc1C(F)(F)F" ? Not met

In plain terms: is recorded pIC50 at least 7 for COCC(CN(C)C(=O)c1ccc2n1Cc1ccccc1N(C(=O)c1ccc(-c3ccccc3C(F)(F)F)c(C)c1)C2)OC (centres unmarked) ? Not met

In plain terms: is recorded pIC50 at least 7 for "Cc1cc(C(=O)N2Cc3ccc(C(=O)N(C)CCCN(C)C)n3Cc3ccccc32)ccc1-c1ccccc1C(F)(F)F" ? Not met

In plain terms: is recorded pIC50 at least 7 for O=C(C(COCc1ccccc1)N1C(=O)C(N2C(=O)OCC2c2ccccc2)C1C=Cc1ccccc1)N1CCC(N2CCCCC2)CC1 (centres unmarked) ? Met

In plain terms: is recorded pIC50 at least 7 for "COc1cc(C(=O)N2Cc3ccc(C(=O)N(C)CCCN(C)C)n3Cc3ccccc32)ccc1-c1ccccc1C(F)(F)F" ? Not met

In plain terms: is recorded pIC50 at least 7 for "Cc1cc(C(=O)N2Cc3ccc(C(=O)N(C)C[C@H](O)[C@@H](O)[C@H](O)[C@H](O)CO)n3Cc3ccccc32)ccc1C1=CCCc2ccccc21" ? Not met

In plain terms: is recorded pIC50 at least 7 for CC(C)N1CCN(C(=O)CCC(C(=O)NCc2cccc(C(F)(F)F)c2)N2C(=O)C(N3C(=O)OCC3c3ccccc3)C2C=Cc2ccccc2)CC1 (centres unmarked) ? Met

In plain terms: is recorded pIC50 at least 7 for "Cc1cc(C(=O)N2Cc3ccc(C(=O)N4CCN(C[C@H](O)CO)CC4)n3Cc3ccccc32)ccc1-c1ccccc1C(F)(F)F" ? Not met

In plain terms: is recorded pIC50 at least 7 for "Cc1cc(C(=O)N2Cc3ccc(C(=O)N4CCC[C@H]4CN4CCCC4)n3Cc3ccccc32)ccc1-c1ccccc1C(F)(F)F" ? Not met

In plain terms: is recorded pIC50 at least 7 for "COc1cc(-c2ccccc2Cl)c(Cl)cc1C(=O)N1Cc2ccc(C(=O)N(C)C3CCN(C)CC3)n2Cc2ccccc21" ? Not met

In plain terms: is recorded pIC50 at least 7 for "COc1cccc(-c2ccc(C(=O)N3Cc4ccc(C(=O)N(C)CCc5ccccn5)n4Cc4ccccc43)cc2C)c1" ? Not met

In plain terms: is recorded pIC50 at least 7 for "COc1cc(-c2ccccc2C(F)(F)F)c(OC)cc1C(=O)N1Cc2cccn2Cc2ccccc21" ? Not met

In plain terms: is recorded pIC50 at least 7 for "O=C(N[C@@H]1CCCc2ccccc21)[C@H](CCC(=O)N1CCN(C2CCCCC2)CC1)N1C(=O)[C@@H](N2C(=O)OC[C@@H]2c2ccccc2)[C@H]1/C=C/c1cccc(Cl)c1" ? Met

In plain terms: is recorded pIC50 at least 7 for "CN(C)C=NNC(=O)c1ccc2n1Cc1ccccc1N(C(=O)c1ccc(C3CCCCC3)cc1)C2" ? Not met

In plain terms: is recorded pIC50 at least 7 for O=C(NCc1cccc(C(F)(F)F)c1)C(CCC(=O)N1CCN(C2CCCCC2)CC1)N1C(=O)C(N2C(=O)OCC2c2ccccc2)C1C=Cc1ccccc1 (centres unmarked) ? Met
